// reported normalized growth for each item listed
# protocol_description: chemical genetic growth profiling, strain panel (AID 1159580);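 note: tested at 20 µM; growth read once vehicle control cultures reached saturation at 30 °C; 1 = growth at the plate median or of vehicle wells; lower values mean less growth of the strain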
# applied_conditions: S. cerevisiae deletion strains, growth OD, locus YDR334W, strain swr1, stronger effect = lower value
Screen size: about 5,500 compounds; about 2,000 (36%) were called active. About 18% were inconclusive and are not listed. The list shows a part of the results.
Give only the figure.

| compound | measurement_kind | reported_result |
| --- | --- | --- |
| CC(=O)O[C@H]1C[C@@H](OC(C)=O)C(C)(C)C2CC(=O)[C@]3(C)C(CC[C@@]4(C)[C@H](C(=O)O)OC(=O)C5OC543)[C@]21C (stereo not given in full) | normalized growth | 0.976 |
| CNC(=O)O/N=C(\C)SC | normalized growth | 0.999 |

What value of measured normalized growth is listed for COC(=O)C1=COC(OC2OC(CO)C(O)C(O)C2O)C2C(C)CC(=O)C12 (stereo not given) ?
1.03

Which value of normalized growth has been reported for "Cc1[nH]c2ccccc2c1CN(C)C" in the records?
1.01

# get_value(readout='normalized growth', item= COC(=O)[C@@H]1OC(=O)C2OC23[C@@]1(C)CCC1[C@]2(C)C(C[C@H](O)[C@]13C)C(C)(C)[C@H](OC(C)=O)C[C@@H]2OC(C)=O (stereo not given in full) )
1.02

Return reported normalized growth; argument: "O=c1cccc2ccc(O)c(O)c2c1O"
0.885

I am curious: what normalized growth value has been reported for CN(C)CCCC1(c2ccc(F)cc2)OCc2cc(C#N)ccc21 (stereo not given) ?
0.983

Consider the compound shown here: "COC(=O)c1cc(=O)c(O)c2c(O)c(O)ccc2c1" What is its recorded normalized growth?
0.983

Given the entry "O=C(c1ccc(OCCN2CCCCC2)cc1)c1c(-c2ccc(O)cc2)sc2cc(O)ccc12" , report its measured normalized growth.
1.02

Please give the measured normalized growth for this compound: COc1ccc(C(CN(C)C)C2(O)CCCCC2)cc1 (stereo not given)
0.97
